B1: SNAP91 (parent)
chain: FGGSFMAPSPSPVTPAQNNLLQPN

Variants of: B1
test: protein stability index of a GFP-peptide fusion (GPS, HEK-293T) (PSI 1-6); higher = more stable;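 note: lentivirally expressed fusions sorted by FACS into six bins by GFP to DsRed ratio, PSI derived from sequencing read proportions per bin multiplied by bin number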
measurementContext: c terminus: a fixed tail appended
Please go through the items and note down their protein stability index.
Numbers only.

Okay, here is my list. What is protein stability index for each of these?
1. P8M
2. P10E
3. T14R

Completion:
1: 4.32; 2: 1.22; 3: 1.54

Record protein stability index for all entries; do not skip any.
1. P10F
2. G3T
3. P10G
4. P8Y
5. F1I

Completion:
2.89
2.44
2.18
3.9
3.99

# map each variant to its protein stability index
1. P12G
2. P8G
3. P10M

Completion:
1: 1.72; 2: 2.67; 3: 3.19
